The origin of these recorded values is PubChem BioAssay (NCATS).

tested on: CP237; assay: qHTS profiling for inhibitors of Plasmodium falciparum proliferation (AID 504749); also: nearly all actives have a fitted effect of over 60% in size; conditions: P. falciparum in erythrocytes, SYBR Green DNA, 72 h; series mostly up to 28.7 µM
Records with an inconclusive call do not appear. Calls of active or inactive are those of the source. Calls follow the shape of the dose curve; as a rule, active = well fitted inhibition curve with a large enough effect; inconclusive = small, poorly fitted or top-dose-only effect; inactive = flat fitted curve, though single readings scatter.
Classes to choose from: 1.0 for active, 0.0 for inactive

[ask] Dear colleague, could you share the recorded outcome for `COC1=CC(=O)C[C@@H](C)[C@]12Oc1c(Cl)c(OC)cc(OC)c1C2=O` when you have a moment?
[reply] 0.0

[ask] Check the results log: what was the call for `CCOC(=O)/C=C(C)/C=C/C=C(C)/C=C/c1c(C)cc(OC)c(C)c1C` ?
[reply] 0.0

[ask] Kindly provide the recorded test outcome for the following molecule: `Oc1c(Cl)cc(Cl)cc1Sc1cc(Cl)cc(Cl)c1O`
[reply] 0.0

[ask] Please share the test call associated with `NC(=NCCCCCCN=C(N)/N=C(\N)Nc1ccc(Cl)cc1)/N=C(\N)Nc1ccc(Cl)cc1` .
[reply] 1.0

[ask] Record request — test call for `Cc1c(N(C)CS(=O)(=O)O)c(=O)n(-c2ccccc2)n1C`
[reply] 0.0

[ask] Test call, this molecule: `CC(O)(P(=O)(O)O)P(=O)(O)O`
[reply] 0.0

[ask] Please state the recorded outcome for this molecule: `CC(=O)Oc1ccc(C(c2ccc(OC(C)=O)cc2)c2ccccn2)cc1`
[reply] 0.0

[ask] Dear all, I need the recorded test outcome for `c1ccc(CNCCNCc2ccccc2)cc1` , thank you.
[reply] 1.0

[ask] Please indicate how the test categorized `Nc1ccc(/C=C/c2ccc(N)cc2S(=O)(=O)O)c(S(=O)(=O)O)c1` .
[reply] 0.0

[ask] Record request — test call for `C#C[C@]1(OC(C)=O)CC[C@H]2[C@@H]3CCC4=C[C@@H](OC(C)=O)CC[C@@H]4[C@H]3CC[C@@]21C`
[reply] 0.0

[ask] Test call for this molecule, please: `Cc1ccnc(NS(=O)(=O)c2ccc(N)cc2)n1`
[reply] 0.0

[ask] Hey, what did the test say about `CN(C)C(=S)SC(=S)N(C)C` ?
[reply] 1.0

[ask] Hey, what did the test say about `CCCCCCCCCCCCCCCC[N+](C)(C)CC` ?
[reply] 1.0

[ask] Could you check what this test reported for `CN(C)CCOc1ccccc1Cc1ccccc1` ?
[reply] 1.0

[ask] Look up the recorded call for `C#C[C@]1(O)CC[C@H]2[C@@H]3CCc4cc(OC5CCCC5)ccc4[C@H]3CC[C@@]21C` in this test.
[reply] 0.0

[ask] Outcome logged for COc1cccc(CCc2ccccc2OCC(CN(C)C)OC(=O)CCC(=O)O)c1 (stereo not drawn) in this assay:
[reply] 1.0

[ask] Assay result, entry CC1=C(C(=O)OC(C)C)C(c2cccc([N+](=O)[O-])c2)C(C(=O)OC2CN(C(c3ccccc3)c3ccccc3)C2)=C(N)N1 (stereo not drawn) — outcome?
[reply] 1.0

[ask] Status in this test for `O=C1c2ccccc2C(=O)C1c1ccccc1` ?
[reply] 0.0

[ask] Returns: the outcome recorded for `CN=C(NC#N)NCCSCc1csc(N=C(N)N)n1` in this assay.
[reply] 0.0

[ask] What did this assay record as the result for `Oc1ccc(Cl)cc1Sc1cc(Cl)ccc1O` ?
[reply] 0.0

[ask] Which outcome was assigned to `O=c1ccc2ccccc2o1` in this test?
[reply] 0.0

[ask] Which outcome was entered for the molecule `CCn1cc(C(=O)O)c(=O)c2cnc(N3CCCC3)nc21` in this test?
[reply] 0.0

[ask] Could you please tell me the result logged for `CC(C)COC(=O)c1ccc(N)cc1` in this assay?
[reply] 0.0

[ask] Which outcome was entered for the molecule `CC(C)(C)CC(C)(C)c1ccc(OCCOCC[N+](C)(C)Cc2ccccc2)cc1` in this test?
[reply] 1.0

[ask] What did the test return for `CCCCOc1ccc(C(=O)CCN2CCCCC2)cc1` ?
[reply] 0.0

[ask] Hello, I am checking results. What call was entered for `Cc1cc(O)c(C(C)C)cc1Cl` ?
[reply] 0.0

[ask] Per the assay record, what outcome was assigned to `O=C(COc1ccc(Cl)cc1)N1CCN(Cc2ccc3c(c2)OCO3)CC1` ?
[reply] 0.0

[ask] How was `N[C@H](CO)C(=O)O` classified in this test?
[reply] 0.0

[ask] Look up the recorded call for `COc1ccc(CN2CCN(C(c3ccc(F)cc3)c3ccc(F)cc3)CC2)c(OC)c1OC` in this test.
[reply] 1.0

[ask] Please indicate how the test categorized `COc1ccc(C2C(=O)c3ccccc3C2=O)cc1` .
[reply] 0.0

[ask] Outcome? `NCCC(O)(P(=O)(O)O)P(=O)(O)O`
[reply] 0.0

[ask] I'd appreciate the recorded outcome for `CC(C)(C)CC(C)(C)c1ccc(O)c(Cc2ccc(Cl)cc2Cl)c1` from this test.
[reply] 1.0

[ask] Hello, I am checking results. What call was entered for `CC/C(=C(/CC)c1ccc(O)cc1)c1ccc(O)cc1` ?
[reply] 0.0

[ask] Entry `C[C@]12CC[C@@H]3c4ccc(O)cc4CC[C@H]3[C@@H]1CC[C@@H]2O` : call = ?
[reply] 0.0

[ask] Dear all, I need the recorded test outcome for `N[C@H](Cc1c[nH]c2ccccc12)C(=O)O` , thank you.
[reply] 0.0

[ask] # fetch the recorded call for `OC(CCN1CCCCC1)(c1ccccc1)c1ccccc1` here
[reply] 1.0

[ask] So what was the verdict on `CCCN1CCCC[C@H]1C(=O)Nc1c(C)cccc1C` in this test?
[reply] 1.0

[ask] Check the results log: what was the call for `O=C(Nc1ccc(Cl)c(Cl)c1)C1CC1` ?
[reply] 0.0

[ask] // return assay outcome for `CCCCc1nc(Cl)c(CO)n1Cc1ccc(-c2ccccc2-c2nn[nH]n2)cc1`
[reply] 0.0

[ask] What outcome does the record of this test show for `NCCCC[C@H](N[C@@H](CCc1ccccc1)C(=O)O)C(=O)N1CCC[C@H]1C(=O)O` ?
[reply] 0.0

[ask] Called result for `N[C@@H](Cc1cnc[nH]1)C(=O)O`
[reply] 0.0

[ask] Record request — test call for `CC(C)COC(=O)OCN1C(=O)CN(CCN2CC(=O)N(COC(=O)OCC(C)C)C(=O)C2)CC1=O`
[reply] 0.0

[ask] Per the assay record, what outcome was assigned to `COc1c2occc2c(OC)c2c(=O)cc(C)oc12` ?
[reply] 0.0

[ask] Recorded test outcome, item `CCCCCCCCCCCCCCCCOP(=O)([O-])OCC[N+](C)(C)C`
[reply] 0.0

[ask] So what was the verdict on `O=C1CCC(c2ccc(-n3ccnc3)cc2)=NN1` in this test?
[reply] 0.0

[ask] # fetch the recorded call for `CC(=O)Nc1c(I)cc(I)c(C(=O)O)c1I` here
[reply] 0.0

[ask] Called result for CCN(CC)CCOC(=O)C(c1ccccc1)C1CCCCC1 (stereo not drawn)
[reply] 0.0

[ask] Which outcome was assigned to O=C(CCN1CCC(c2ccccc2)C1)c1ccc2c(c1)OCCO2 (stereo not drawn) in this test?
[reply] 0.0

---

Experiment: A High-Content qHTS Against Drug Library for the Identification of Small Molecules that Inhibit DYT1 Early Onset Primary Dystonia-Associated Cell Pathology (AID 1645839)
Settings: HEK293 Flp-In EGFP-delE TorsinA, punctate imaging, 48 h; series mostly up to 46.1 µM
Text: Nicole Calakos M.D., Ph.D. Duke University School of Medicine, Durham, NC […] The bioassay described herein is a high-content image screen with two readouts. The "%pathology" readout is the primary qHTS data channel, while the "cellcount" is the counterscreen qHTS channel. Desired active compounds are those that show inhibition in %pathology channel but no activity or minimal toxicity in cellcount readout. […]
Results filed as inconclusive are left out. The source made the active and inactive calls. Calls follow the shape of the full dose curve.
Would you mind answering with one of these outcomes? active, inactive

[ask] # outcome recorded in this test, key = `OC[C@H]1O[C@H](O[C@]2(CCl)O[C@H](CCl)[C@@H](O)[C@@H]2O)[C@H](O)[C@@H](O)[C@H]1Cl`
[reply] inactive

[ask] Test call for this compound, please: CCOC(=O)OC(C)OC1=C(C(=O)Nc2ccccn2)N(C)S(=O)(=O)c2ccccc21 (stereo not given)
[reply] inactive

[ask] What did the test return for `CN(C/C=C/c1ccccc1)Cc1cccc2ccccc12` ?
[reply] inactive

[ask] Which outcome did this test record for the compound `C[C@@H]1C[C@H]2[C@@H]3C[C@H](F)C4=CC(=O)C(Cl)=C[C@]4(C)[C@@]3(F)[C@@H](O)C[C@]2(C)[C@@]1(O)C(=O)CO` ?
[reply] inactive

[ask] What did this assay record as the result for `CC[N+](CC)(CCNC(=O)C(=O)NCC[N+](CC)(CC)Cc1ccccc1Cl)Cc1ccccc1Cl` ?
[reply] inactive

[ask] Check the results log: what was the call for COC(=O)CCc1ccc(OCC(O)CNC(C)C)cc1 (stereo not given) ?
[reply] inactive

[ask] For NC(CS)C(=O)O (stereo not given) , what call appears in the results of this test?
[reply] inactive

[ask] Test call, this compound: `CCOC(=O)[C@H](CCc1ccccc1)N[C@@H](C)C(=O)N1Cc2ccccc2C[C@H]1C(=O)O`
[reply] inactive

[ask] Look up the recorded call for `CN(C)CC/C=C1\c2ccccc2Sc2ccc(Cl)cc21` in this test.
[reply] active

[ask] Hi, do you know how `CC(O)(P(=O)(O)O)P(=O)(O)O` came out in this test?
[reply] inactive
